Biological target: EP4 (Homo sapiens, UniProt P35408)
Sequence (P35408 whole entry): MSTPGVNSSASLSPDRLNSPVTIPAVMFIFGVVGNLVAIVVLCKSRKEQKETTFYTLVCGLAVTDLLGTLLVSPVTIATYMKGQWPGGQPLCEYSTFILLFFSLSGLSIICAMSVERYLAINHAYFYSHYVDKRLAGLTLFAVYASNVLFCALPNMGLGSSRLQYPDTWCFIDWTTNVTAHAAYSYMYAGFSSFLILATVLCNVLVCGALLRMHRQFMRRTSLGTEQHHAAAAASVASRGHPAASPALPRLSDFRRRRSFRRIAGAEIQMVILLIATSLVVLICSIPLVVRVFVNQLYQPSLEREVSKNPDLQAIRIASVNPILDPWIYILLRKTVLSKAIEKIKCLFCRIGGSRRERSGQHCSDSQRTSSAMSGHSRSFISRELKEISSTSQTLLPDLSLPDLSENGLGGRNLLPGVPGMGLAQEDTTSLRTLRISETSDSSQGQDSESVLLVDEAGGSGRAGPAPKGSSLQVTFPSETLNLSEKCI
Assay: cAMP HTRF agonist assay, EP4
Type: cell-based
Conditions: cAMP HTRF agonist assay
pEC50: −log10 of the molar value.
measurement_label: pEC50

The examples below pair each entry with its known result.
O=C(O)COC[C@H]1CC[C@H](COC(=O)N(c2ccccc2)c2ccc(Cl)cc2)CC1 [5c]: < 5.00
O=C(O)CCCCCCC1C(=O)NC(=O)N1CCC(O)C1CCCCC1 (stereo not shown) [BW245C]: < 5.00
CC(C)N(CCCCOCC(=O)O)c1cnc(-c2ccccc2)c(-c2ccccc2)n1 [compound 2, MRE269]: < 5.00

We now examine a further compound.
## Task # lookup: pEC50 of CC#CCC(C)[C@H](O)/C=C/[C@@H]1[C@H]2C/C(=C/CCCC(=O)O)C[C@H]2C[C@H]1O (stereo partly shown) [iloprost]
## Result 6.39

---

Assay: Rat PK (iv and oral)
Format: in vivo
Settings: Sprague-Dawley, plasma, po, 10 mg/kg
Listing of recorded bioavailability by entry.
Write the value in % as a bare number.

The examples below pair each entry with its known result.
O=C(O)COC[C@H]1CC[C@H](COC(=O)N(c2ccccc2)c2cccc(F)c2)CC1: 39
O=C(O)COC[C@H]1CC[C@H](COC(=O)N(c2ccccc2)c2ccc(F)cc2)CC1: 100
O=C(O)COC[C@H]1CC[C@H](COC(=O)N(c2ccccc2)c2ccc(Cl)c(F)c2)CC1: 88
COc1ccc(N(C(=O)OC[C@H]2CC[C@H](COCC(=O)O)CC2)c2ccccc2)cc1: 100
O=C(O)COC[C@H]1CC[C@H](COC(=O)N(c2ccccc2)c2ccc(F)c(F)c2)CC1: 24
O=C(O)COC[C@H]1CC[C@H](COC(=O)N(c2ccccc2)c2ccc(Cl)cc2)CC1: 57

We now examine a further molecule.
## Task # lookup: bioavailability of COc1cccc(N(C(=O)OC[C@H]2CC[C@H](COCC(=O)O)CC2)c2ccccc2)c1
## Result 86

---

Listing of recorded IC50 by entry.
Target: CYP 1A2 (Homo sapiens, UniProt P05177)
Sequence (P05177 whole entry): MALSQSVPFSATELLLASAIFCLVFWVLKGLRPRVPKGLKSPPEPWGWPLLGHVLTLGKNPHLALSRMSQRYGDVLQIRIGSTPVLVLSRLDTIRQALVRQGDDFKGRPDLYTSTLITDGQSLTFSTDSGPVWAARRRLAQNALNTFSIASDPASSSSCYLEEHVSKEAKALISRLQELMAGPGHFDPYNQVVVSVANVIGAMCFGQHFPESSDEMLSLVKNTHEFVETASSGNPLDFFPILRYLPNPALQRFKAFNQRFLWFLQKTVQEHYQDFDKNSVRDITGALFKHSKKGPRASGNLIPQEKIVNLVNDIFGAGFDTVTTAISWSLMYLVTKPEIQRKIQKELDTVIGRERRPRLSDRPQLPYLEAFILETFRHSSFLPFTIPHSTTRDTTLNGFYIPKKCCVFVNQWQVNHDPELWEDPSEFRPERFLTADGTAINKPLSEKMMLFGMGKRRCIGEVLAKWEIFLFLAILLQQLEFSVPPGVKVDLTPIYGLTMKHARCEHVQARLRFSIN
Experiment: Cytochrome P450 inhibition, CYP1A2
Assay type: in vitro ADME

O=C(O)COC[C@H]1CC[C@H](COC(=O)N(c2ccccc2)c2ccc(Cl)cc2)CC1 [5c]: > 50 µM

We now examine a further molecule.
## Task Which measured IC50 belongs to O=C(O)COC[C@H]1CC[C@H](COC(=O)N(c2ccccc2)c2cccc(F)c2)CC1 [5g] , tested on CYP 1A2 (Homo sapiens, UniProt P05177)?
## Result > 50 µM

---

Target: IP (Homo sapiens, UniProt P43119)
Sequence (P43119 whole entry): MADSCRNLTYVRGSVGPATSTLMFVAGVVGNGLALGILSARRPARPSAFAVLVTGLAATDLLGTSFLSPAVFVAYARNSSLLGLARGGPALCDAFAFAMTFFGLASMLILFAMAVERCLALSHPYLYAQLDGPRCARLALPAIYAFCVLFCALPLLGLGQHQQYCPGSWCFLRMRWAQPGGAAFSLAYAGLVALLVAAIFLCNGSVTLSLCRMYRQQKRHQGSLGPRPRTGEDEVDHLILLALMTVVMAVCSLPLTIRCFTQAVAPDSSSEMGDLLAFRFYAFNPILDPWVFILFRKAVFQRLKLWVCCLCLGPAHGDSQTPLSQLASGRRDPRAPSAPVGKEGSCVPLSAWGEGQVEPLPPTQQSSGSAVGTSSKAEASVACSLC
Experiment: HTRF cAMP assay, recombinant human IP receptor stably expressed in CHO-K1 cells
Format: cell-based
Parameters: expressed in transfected cells
Conditions: CHO-K1, read-out: hIP % IA
measurement_label: Emax (%)
Write the value in % as a bare number.

The examples below pair each entry with its known result.
O=C(O)COC[C@H]1CC[C@H](COC(=O)N(c2ccccc2)c2ccc(Cl)cc2)CC1: 85
CC#CCC(C)[C@H](O)/C=C/[C@@H]1[C@H]2C/C(=C/CCCC(=O)O)C[C@H]2C[C@H]1O (stereo partly shown): 101
O=C(O)COC[C@H]1CC[C@@H](COC(=O)N(c2ccccc2)c2ccc(Cl)cc2)CC1: 80

We now examine a further compound.
## Task # lookup: Emax of CC(C)N(CCCCOCC(=O)O)c1cnc(-c2ccccc2)c(-c2ccccc2)n1
## Result 60

---

Target: CYP 3A4 (Homo sapiens, UniProt P08684)
Sequence (P08684 whole entry): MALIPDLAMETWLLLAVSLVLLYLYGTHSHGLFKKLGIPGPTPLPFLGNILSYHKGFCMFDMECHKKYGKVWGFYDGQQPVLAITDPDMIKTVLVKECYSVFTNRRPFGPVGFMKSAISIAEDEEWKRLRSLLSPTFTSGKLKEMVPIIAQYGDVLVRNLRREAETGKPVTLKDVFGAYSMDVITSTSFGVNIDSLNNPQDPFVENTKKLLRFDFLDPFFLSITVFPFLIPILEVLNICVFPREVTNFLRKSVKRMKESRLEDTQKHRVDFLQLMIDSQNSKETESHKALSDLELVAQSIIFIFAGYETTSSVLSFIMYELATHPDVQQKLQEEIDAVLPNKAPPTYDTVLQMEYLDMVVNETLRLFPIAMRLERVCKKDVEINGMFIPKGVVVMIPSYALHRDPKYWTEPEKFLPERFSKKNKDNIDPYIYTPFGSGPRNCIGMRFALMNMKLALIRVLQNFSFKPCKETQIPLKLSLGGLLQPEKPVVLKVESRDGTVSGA
Test: Cytochrome P450 inhibition, CYP3A4
Type: in vitro ADME
pIC50: −log10 of the molar value.
Listing of recorded pIC50 by entry.

O=C(O)COC[C@H]1CC[C@H](COC(=O)N(c2ccccc2)c2cccc(F)c2)CC1: < 4.30

We now examine a further molecule.
## Task # lookup: pIC50 of O=C(O)COC[C@H]1CC[C@H](COC(=O)N(c2ccccc2)c2ccc(Cl)cc2)CC1
## Result < 4.30

---

Listing of recorded pEC50 by entry.
Target: rat IP (Rattus norvegicus, UniProt P43253)
Sequence (P43253 whole entry): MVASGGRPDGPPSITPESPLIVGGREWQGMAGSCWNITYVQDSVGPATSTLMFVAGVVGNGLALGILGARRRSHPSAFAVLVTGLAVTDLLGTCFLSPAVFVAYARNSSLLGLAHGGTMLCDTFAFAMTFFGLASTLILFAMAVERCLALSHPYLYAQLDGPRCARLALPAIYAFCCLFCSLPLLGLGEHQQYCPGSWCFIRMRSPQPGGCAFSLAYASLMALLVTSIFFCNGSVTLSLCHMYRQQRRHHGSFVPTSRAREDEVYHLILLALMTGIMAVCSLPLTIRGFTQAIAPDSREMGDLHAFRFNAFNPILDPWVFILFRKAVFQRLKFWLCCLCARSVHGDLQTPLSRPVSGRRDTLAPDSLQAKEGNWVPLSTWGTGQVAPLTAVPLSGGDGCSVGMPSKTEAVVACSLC
Assay: HTRF cAMP assay, recombinant rat IP receptor
Details: HTRF (cAMP) rat IP receptor assay; mean of at least three determinations
Expect pEC50 as a plain number equal to -log10 of the molar concentration.

## Task # lookup: pEC50 of O=C(O)COC[C@H]1CC[C@H](COC(=O)N(c2ccccc2)c2ccc(Cl)cc2)CC1 [5c]
## Result 6.28

## Task Please answer likewise for CC#CCC(C)[C@H](O)/C=C/[C@@H]1[C@H]2C/C(=C/CCCC(=O)O)C[C@H]2C[C@H]1O (stereo partly shown) [iloprost]
## Result 9.16

## Task Please answer likewise for O=C(O)COC[C@H]1CC[C@H](COC(=O)N(c2ccccc2)c2ccc(F)c(Cl)c2)CC1 [5n]
## Result 5.88

## Task Please answer likewise for O=C(O)COC[C@H]1CC[C@H](COC(=O)N(c2ccccc2)c2ccc(F)c(F)c2)CC1 [5o]
## Result 6.19

---

Test: Plasma protein binding
Assay type: in vitro ADME
Settings: across all species, read-out: free fraction
Listing of recorded fraction unbound by entry.
Just the number, please, no unit attached.

O=C(O)COC[C@H]1CC[C@H](COC(=O)N(c2ccccc2)c2cccc(F)c2)CC1: 0.01

We now examine a further molecule.
## Task # lookup: fraction unbound of O=C(O)COC[C@H]1CC[C@H](COC(=O)N(c2ccccc2)c2ccc(Cl)cc2)CC1
## Result 0.01

---

Molecular target: rat IP (Rattus norvegicus, UniProt P43253)
Test: HTRF cAMP assay, recombinant rat IP receptor
Type: cell-based
Parameters: expressed in transfected cells
Details: read-out: rIP % IA
Method: The new compounds were tested for functional agonist activity in a standard (Cisbio) cAMP assay using recombinant IP or DP1 receptors stably expressed in CHO-K1 cells. […] For development of cAMP accumulation assays, recombinant IP or DP1 receptors were stably expressed in CHO-K1 cells and clonal cell lines derived following standard protocols. […] Plates were then incubated at room temperature for 1 h prior to reading. […]
Listing of recorded Emax by entry.
Write the value in % as a bare number.

The examples below pair each entry with its known result.
O=C(O)COC[C@H]1CC[C@H](COC(=O)N(c2cccc(F)c2)c2ccc(Cl)c(F)c2)CC1 [5t]: 56
O=C(O)COC[C@H]1CC[C@@H](COC(=O)N(c2ccccc2)c2cccc(F)c2)CC1 [5h]: 88
CC(C)N(CCCCOCC(=O)NS(C)(=O)=O)c1cnc(-c2ccccc2)c(-c2ccccc2)n1 [compound 1, selexipag, reference compound]: 100
O=C(O)COC[C@H]1CC[C@H](COC(=O)N(c2ccccc2)c2cccc(F)c2)CC1 [5g]: 83
O=C(O)COC[C@H]1CC[C@@H](COC(=O)N(c2ccccc2)c2ccccc2)CC1 [5b]: 94
O=C(O)COC[C@H]1CC[C@H](COC(=O)N(c2ccc(Cl)cc2)c2cccc(F)c2)CC1 [5q]: 44
Cc1ccc(N(C(=O)OC[C@H]2CC[C@H](COCC(=O)O)CC2)c2ccccc2)cc1 [5k]: 99
O=C(O)COC[C@H]1CC[C@H](COC(=O)N(c2ccccc2)c2ccc(Cl)c(F)c2)CC1 [5m]: 92
O=C(O)COC[C@H]1CC[C@H](COC(=O)N(c2ccccc2)c2ccc(F)c(F)c2)CC1 [5o]: 95
O=C(O)COC[C@H]1CC[C@H](COC(=O)N(c2ccccc2)c2ccc(F)c(Cl)c2)CC1 [5n]: 102

## Task Which measured Emax belongs to CC#CCC(C)[C@H](O)/C=C/[C@@H]1[C@H]2C/C(=C/CCCC(=O)O)C[C@H]2C[C@H]1O (stereo partly drawn) [iloprost] , tested on rat IP (Rattus norvegicus, UniProt P43253)?
## Result 99

## Task Please answer likewise for O=C(O)COC[C@H]1CC[C@H](COC(=O)N(c2ccc(F)cc2)c2cccc(F)c2)CC1 [5s]
## Result 54

## Task Please answer likewise for O=C(O)COC[C@H]1CC[C@H](COC(=O)N(c2ccccc2)c2ccc(F)cc2)CC1 [5l]
## Result 91

## Task Please answer likewise for COc1cccc(N(C(=O)OC[C@H]2CC[C@H](COCC(=O)O)CC2)c2ccccc2)c1 [5j]
## Result 94

## Task Please answer likewise for COc1ccc(N(C(=O)OC[C@H]2CC[C@H](COCC(=O)O)CC2)c2cccc(F)c2)cc1 [5p]
## Result 60

---

Biological target: rat IP (Rattus norvegicus, UniProt P43253)
Assay: HTRF cAMP assay, recombinant rat IP receptor
Assay type: cell-based
Design: expressed in transfected cells
Details: read-out: rIP % IA
measurement_label: Emax
// return the numeric value with its unit appended

O=C(O)COC[C@H]1CC[C@H](COC(=O)N(c2ccccc2)c2cccc(Cl)c2)CC1: 88%
COc1ccc(N(C(=O)OC[C@H]2CC[C@H](COCC(=O)O)CC2)c2ccccc2)cc1: 91%
O=C(O)COC[C@H]1CC[C@@H](COC(=O)N(c2ccccc2)c2ccc(Cl)cc2)CC1: 88%
O=C(O)COC[C@H]1CC[C@H](COC(=O)N(c2ccccc2)c2ccccc2)CC1: 89%

We now examine a further compound.
## Task Which measured Emax belongs to O=C(O)COC[C@H]1CC[C@H](COC(=O)N(c2ccccc2)c2ccc(Cl)cc2)CC1 , tested on rat IP (Rattus norvegicus, UniProt P43253)?
## Result 88%

These data points were gathered from paper PMC11602115.
